System: A498 renal
experiment.notes: NCI-60 one-dose screen, 48 h
experimental.conditions: 10 µM unless noted
This is part of a sample that, as a whole, favours compounds with a hit. Of some 83,000 tested, about 20% had one in any assay. Activity calls are given as the source filed them. How the source made its calls: active means growth percent below 10; inactive means the rest.
# output must be one of Yes = active, No = inactive

# fetch the recorded call for CC1(C)CC[C@]2(C(N)=O)CC[C@]3(C)C(=CC[C@@H]4[C@@]5(C)C/C(=C/c6ccncc6)C(=O)C(C)(C)[C@@H]5CC[C@]43C)[C@@H]2C1 here
Yes

# fetch the recorded call for CCN=Cc1c(O)c(O)c(C(C)C)c2cc(C)c(-c3c(C)cc4c(C(C)C)c(O)c(O)c(C=NCC)c4c3O)c(O)c12 here
No

# fetch the recorded call for CC1=CC[C@@H]2C(C)(C)C(=O)CC[C@@]2(C)[C@@H]1COc1ccc2ccc(=O)oc2c1 here
No

# fetch the recorded call for CC(C)(C)c1cc(C(=O)Nc2cc3ccccc3cc2C(=O)NCCN)cc(C(C)(C)C)c1 here
Yes

# fetch the recorded call for CCCCCCCCCCCCCCNC(=O)Nc1ccc(Cl)c(Cl)c1 here
No

# fetch the recorded call for CCOC(=O)n1cc(C2=C(c3ccc(OC)c(OC)c3)COC2=O)c2ccccc21 here
Yes

# fetch the recorded call for COc1ccc(OC)c([N+](=O)[O-])c1C(=O)CNC(C)=O here
No

# fetch the recorded call for CCOC(=O)C(=Cc1ccccc1[N+](=O)[O-])C(=O)OCC here
No

# fetch the recorded call for O=C1COCCN1c1ccc(NCc2cn(Cc3ccc(F)cc3)c3ccccc23)cc1 here
Yes

# fetch the recorded call for COc1ccc(/C=C/C=C\C(=O)c2ccc(-n3ccnc3)cc2)cc1 here
No

# fetch the recorded call for CCN(CC)c1ccc2cc(C(Nc3ccc(C)cc3)c3nnnn3C(C)(C)C)c(=O)oc2c1 (centres undefined) here
No

# fetch the recorded call for CCCC(NC(=O)OCc1ccccc1)C(=O)O (centres undefined) here
No

# fetch the recorded call for Cc1cc(NN=C(c2ccc(O)cc2)c2ccc(O)cc2)c([N+](=O)[O-])cc1[N+](=O)[O-] here
No

# fetch the recorded call for CCOC(=O)COc1ccc2c(c1)O/C(=C\c1ccc(O)cc1)C2=O here
No

# fetch the recorded call for COc1ccc(C(=O)CSc2nccc(Nc3ccc(C(=O)O)cc3)n2)cc1 here
No

# fetch the recorded call for N#C/C(C(=O)c1ccccc1)=C1/C(=O)Nc2ccccc21 here
No

# fetch the recorded call for CC1(C)CC[C@]2(C(=O)O)CC[C@]3(C)C(=CC[C@@H]4[C@@]5(C)C/C(=C/c6cccnc6)[C@H](O)C(C)(C)[C@@H]5CC[C@]43C)[C@@H]2C1 here
No

# fetch the recorded call for Clc1ccc2nc(-c3ccc(-c4ccc(/C=N/NC5=NCCN5)cc4)s3)cn2c1 here
No

# fetch the recorded call for Cc1cc(C)c(O)c(CNCCCNCc2cc(C)cc(C)c2O)c1 here
No

====

System: NCI-H460 lung
experiment.notes: NCI-60 one-dose screen, 48 h
experimental.conditions: 10 µM unless noted
The panel holds about 83,000 compounds, 20% with a hit somewhere; the sample as a whole holds those more often. The source made the active and inactive calls. The calls were made as follows: active = growth percent below 10; inactive = the rest.
# output must be one of y (active), n (inactive)

# fetch the recorded call for C=C(CN=[N+]=[N-])[C@@H]1CC[C@]2(C)[C@H](CC[C@@H]3[C@H]4[C@H]5OC(=O)[C@@]4(CCC5(C)C)CC[C@]32C)[C@@]1(C)CCC#N here
n

# fetch the recorded call for O=C(O)c1ccccc1C(F)(F)F here
n

# fetch the recorded call for COC(=O)[C@]12CCC(C)(C)C[C@H]1C1=CC[C@@H]3[C@@]4(C)C/C(=C/c5cccnc5)C(=O)C(C)(C)[C@@H]4CC[C@@]3(C)[C@]1(C)CC2 here
y

# fetch the recorded call for O=S(=O)(c1ccc(N/N=C\c2ccccc2Cl)cc1)c1ccc(N/N=C/c2ccccc2Cl)cc1 here
n

# fetch the recorded call for CCN(CC)c1ccc2cc(C(Nc3ccc(Cl)cc3)c3nnnn3C(C)(C)C)c(=O)oc2c1 (stereo not drawn) here
n

# fetch the recorded call for CN(C)CCCNc1nc(-c2cccc(C(Cl)(Cl)Cl)c2)nc(C(Cl)(Cl)Cl)n1 here
n

# fetch the recorded call for CCCCC1COc2cccc3c2N1C=C/C3=C\C(=O)n1ccc2ccccc21 (stereo not drawn) here
n

# fetch the recorded call for C=C(C)[C@@H]1CC[C@]2(C(=O)NCCCN)CC[C@]3(C)[C@H](CC[C@@H]4[C@@]5(C)CC[C@H](O)C(C)(C)[C@@H]5CC[C@]43C)[C@@H]12 here
y

# fetch the recorded call for O=C1NC(=O)C(Cc2ccccc2)(Cc2ccccc2)N1 here
n

# fetch the recorded call for COc1ccc(C(=O)CSc2nccc(Nc3ccc(C(=O)O)cc3)n2)cc1 here
n

# fetch the recorded call for CN(Cc1cccc(C(F)(F)F)c1)C(=O)[C@@H](CC(=O)N1CCC(N2CCCCC2)CC1)N1C(=O)[C@@H](N2C(=O)OC[C@@H]2c2ccccc2)[C@H]1/C=C/c1ccccc1 here
n

# fetch the recorded call for N#CCCc1c[nH]c2ccccc12 here
n

# fetch the recorded call for O=C(N/N=C/c1ccc([N+](=O)[O-])cc1)c1ccc(Br)o1 here
n

# fetch the recorded call for Cc1cc(C)nc(SCC(=O)Nc2cccc(N=Cc3ccccc3O)c2)n1 here
n

# fetch the recorded call for Clc1ccc2nc(-c3ccc(-c4ccc(/C=N/NC5=NCCN5)cc4)s3)cn2c1 here
n

# fetch the recorded call for C=C(C)[C@@H]1CC[C@]2(C(=O)N3CCN(C)CC3)CC[C@]3(C)[C@H](CC[C@@H]4[C@@]5(C)C/C(=C/c6ccncc6)[C@H](O)C(C)(C)[C@@H]5CC[C@]43C)[C@@H]12 here
y

# fetch the recorded call for CC(C)=CC/C=C(/C)[C@H]1CC[C@]2(C)[C@@H]1CC[C@@H]1[C@@]3(C)CCC(=O)NC(C)(C)[C@@H]3CC[C@]12C here
y

# fetch the recorded call for C#C[C@]1(O)CC[C@H]2[C@@H]3CC=C4c5nc(Nc6ccccc6[N+](=O)[O-])sc5CC[C@]4(C)[C@H]3CC[C@@]21C here
n

# fetch the recorded call for CC(C)(C)OC(=O)N1C=C/C(=C\Cn2cc(-c3ccccc3)nn2)CC1 here
n

# fetch the recorded call for CC1(C)CC[C@]2(C(=O)O)CC[C@]3(C)C(=CC[C@@H]4[C@@]5(C)C/C(=C/c6cccnc6)[C@H](O)C(C)(C)[C@@H]5CC[C@]43C)[C@@H]2C1 here
y

# fetch the recorded call for Cc1ccc(Cn2c(O)c(N=NC(=O)c3ccc(S(N)(=O)=O)cc3)c3ccccc32)cc1 here
n

# fetch the recorded call for CC[C@]12C=CCN3CC[C@@]4(c5ccc(OC)cc5N(C)[C@H]4[C@@](O)(C(=O)OC)[C@@H]1OC(=O)CCC(=O)O[C@H]1CC[C@H]4[C@@H]5CCC6=CC(=O)CC[C@@H]6[C@H]5CC[C@]14C)[C@@H]32 here
y

# fetch the recorded call for O=C(Nc1ccc(Nc2ccncc2)cc1)c1ccc([N+](=O)[O-])cc1 here
n

# fetch the recorded call for CC(=O)CC(=O)SC1=NCCS1 here
n

# fetch the recorded call for O=C(N[C@@H]1CCCc2ccccc21)[C@H](CCC(=O)N1CCN(C2CCCCC2)CC1)N1C(=O)[C@@H](N2C(=O)OC[C@@H]2c2ccccc2)[C@H]1/C=C/c1ccccc1 here
n

# fetch the recorded call for CCCCCCCCCCCCCCCCCCNC(=S)N/N=C/c1ccc(OC)c(OC)c1 here
n

# fetch the recorded call for CC1(C)CC[C@]2(C(=O)O)CC[C@]3(C)C(=CC[C@@H]4[C@@]5(C)C/C(=C/c6ccco6)C(=O)C(C)(C)[C@@H]5CC[C@]43C)[C@@H]2C1 here
y

# fetch the recorded call for O=C1COCCN1c1ccc(NCc2cn(Cc3cccc4ccccc34)c3ccccc23)cc1 here
n

# fetch the recorded call for O=C1CC(c2ccccc2)Cc2nc3ccc(Br)cc3cc21 (stereo not drawn) here
y

# fetch the recorded call for Cc1ccc(S(=O)(=O)Nc2ccccc2)cc1N here
n

# fetch the recorded call for COC(=O)[C@@H](NC(=O)NC(=O)NC(=O)CI)C(C)C here
n

# fetch the recorded call for COc1ncc(-c2ccc3nccc(C#CCCCCC(=O)NO)c3c2)cc1NS(=O)(=O)c1ccc(F)cc1F here
y

# fetch the recorded call for CCOC(=O)C1=C(C(=O)c2ccc(Br)cc2)C(c2ccc(Br)cc2)NC(=S)N1 (stereo not drawn) here
n
